Exercise: for every item that follows, state its recorded kon.
# system: T1, human CTGF (antigen of the Biacore assays) (human, UniProt P29279 27-349)
# T1 construct: also called antigen human CTGF; human CTGF protein
# T1 sequence (looked up): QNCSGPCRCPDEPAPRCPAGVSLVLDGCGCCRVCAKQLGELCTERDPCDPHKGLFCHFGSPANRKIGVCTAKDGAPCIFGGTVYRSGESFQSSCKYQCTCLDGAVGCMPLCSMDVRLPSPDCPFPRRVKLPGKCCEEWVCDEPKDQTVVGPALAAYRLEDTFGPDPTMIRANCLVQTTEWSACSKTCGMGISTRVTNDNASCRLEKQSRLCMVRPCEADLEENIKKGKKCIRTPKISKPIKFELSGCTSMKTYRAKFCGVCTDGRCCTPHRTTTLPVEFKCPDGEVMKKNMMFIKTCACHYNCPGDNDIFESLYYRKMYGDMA
# protocolNotes: Biacore, antibody captured on Protein A, CTGF in flow, 1:1 fit
Reply with just the number (in M⁻¹ s⁻¹).

Consider the binder shown here: Hu164-87wl (antibody, human IgG1, lambda, V domains shown) VH: EVQLQESGPGLVKPSQTLSLTCTVSGFSISTFGVHWIRQHPGKGLEWLGVIWRRGGTDYNAAFMSRLTISKDTSKNQVSFKLSSVTAADTAVYYCARDGGFDYWGQGTTVTVSS VL: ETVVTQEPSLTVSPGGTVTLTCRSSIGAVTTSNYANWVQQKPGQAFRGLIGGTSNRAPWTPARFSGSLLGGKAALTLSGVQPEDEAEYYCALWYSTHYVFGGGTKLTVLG What is its recorded kon?
1.05e+08

Query chimeric antibody Ch147 (antibody, human IgG1, kappa, V domains shown) VH: EVQLVESGGGLVQPEGSLKLSCAASGFSFNTYAMNWVRQAPGKGLEWVARIRTKSNNYATYYADSVKDRFTISRDDSESMLYLQMNNLKTEDTAMYYCVETGFAYWDQGTLVTVSA VL: QIVLTQSPAIMSASPGEKVTITCSASSSVSYMHWFQQKPGTSPKLWIYSTSNLASGVPARFSGSGSGTSYSLTISRMEAEDAATYYCQQRSSYPLTFGAGTKLELKR next
1.49e+07

Query Hu147-21wk (antibody, human IgG1, kappa, V domains shown) VH: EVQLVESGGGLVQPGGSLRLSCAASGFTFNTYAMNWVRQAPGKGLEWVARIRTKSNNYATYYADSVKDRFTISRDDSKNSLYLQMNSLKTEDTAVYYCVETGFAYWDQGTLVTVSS VL: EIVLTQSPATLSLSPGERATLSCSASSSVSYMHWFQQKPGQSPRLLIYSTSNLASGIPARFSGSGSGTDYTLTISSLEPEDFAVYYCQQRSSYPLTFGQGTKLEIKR next
1.66e+07

Query Hu147-12wk (antibody, human IgG1, kappa, V domains shown) VH: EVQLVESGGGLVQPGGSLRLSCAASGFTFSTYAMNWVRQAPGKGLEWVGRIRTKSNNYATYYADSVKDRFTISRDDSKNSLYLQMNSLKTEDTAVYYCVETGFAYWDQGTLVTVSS VL: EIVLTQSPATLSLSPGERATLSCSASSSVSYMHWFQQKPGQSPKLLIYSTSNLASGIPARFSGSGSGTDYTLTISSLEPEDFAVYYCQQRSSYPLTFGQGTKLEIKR next
3.41e+07

Query Hu95-21wk (antibody, human IgG1, kappa, V domains shown) VH: EVQLVQSGAEVKKPGASVKVSCKASGFTFTNYDIHWVRQAPGQRLEWIGLVYPYNGGTAYNQKFKDRATLTFDTSASTAYMELSSLRSEDTAVYYCARWGLIPGTTSYFDVWGQGTTVTVSS VL: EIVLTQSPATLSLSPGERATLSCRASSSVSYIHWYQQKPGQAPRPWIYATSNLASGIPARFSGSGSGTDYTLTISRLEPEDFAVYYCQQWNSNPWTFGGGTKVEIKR next
4.09e+06
